- System: OVCAR-3
- run description: NCI tumour cell line growth inhibition, 48 h
Active and inactive are the calls of the source. No stated cut-off is given here; in the data, active = GI50 up to about 1.1 µM and inactive = higher.
// classify into True = active, False = inactive

Worked examples, 2 compounds total:
CC1(O)C=CC2CCC1C2O (centres undefined)	False
CCOC(=O)C1=C(C)N(c2ccc(Cl)cc2)C2(O)C=CC(O)=C3C(=O)c4ccccc4C(=O)C312 (centres undefined)	False

Hi, do you know how Fc1ccc2nc3n(c2c1)C(c1c(F)cccc1F)SC3 (centres undefined) came out in this test?
False

Request: C[C@@H]1CC2(C[C@@H](C)C3[C@@H](CC4(C)CCCC5C6=CC(O)(CC[C@]34C)OC6=CC(=O)OC5(C)C)O2)OC1=O (some centres undefined)
False

# iterate: `Cc1cc2c(cc1C)[n+]([O-])c(C(=O)CC(=O)C(=O)Nc1ccccc1C)c(C)[n+]2[O-]`
False

----------
- System: SK-MEL-5
- run description: NCI tumour cell line growth inhibition, 48 h
Activity calls are given as the source filed them. Cut-off read from the data, not from the text of the source: active = GI50 up to about 1.1 µM and inactive = higher.
property measured: GI50

Example entries begin here.
CNC(=O)N(C)/N=N/CCCl	> 100 µM (inactive)
C/C(=C\c1csc(C)n1)[C@@H]1C[C@@H]2O[C@@H]2CCC[C@H](C)[C@H](O)[C@@H](C)C(=O)C(C)(C)[C@@H](O)CC(=O)O1	< 0.0001 µM (active)
CCCCCCCCCCCCCCCCOP(=O)(O)OCC(NC(C)=O)C(=O)O (stereo not given)	> 100 µM (inactive)
CCOC(=O)CN1CC(C2=C(O)CN(CC(=O)OCC)C2=O)=CC1=O	> 100 µM (inactive)

Now look at this one.
Look up GI50 for this compound: `c1ccc(N2N=C3N(c4ccccc4)C2N3c2ccccc2)cc1`
21.6 µM (inactive)

----------
- Test system: UACC-62
- run description: NCI tumour cell line growth inhibition, 48 h
The source made the active and inactive calls. Rule as the data show it: active = GI50 up to about 1.1 µM and inactive = higher.
Entries and their measured GI50 follow.

Cc1ccc(S(=O)(=O)NC(=O)NC(CCCCN)C(=O)O)cc1 (stereo not given)	> 100 µM (inactive)

Item `O=NN(CCCl)C(=O)N[C@H]1CC[C@@H](CC(=O)O)CC1` has what recorded GI50?
35.2 µM (inactive)

What do we get for `CCN(CC)Cc1cc(Nc2ccnc3ccc4nn(C)nc4c23)ccc1O` ?
13.7 µM (inactive)

Please answer likewise for `CC(C)(C)OC(=O)NCCc1cccc2c1oc1c(CCC(=O)O)cccc12`
> 100 µM (inactive)

Same thing, different compound: `COC(=O)c1nc(N)nc(O)c1CCCCCc1c(O)nc(N)nc1C(=O)OC`
> 50 µM (inactive)

What about `NC(=S)Nc1ccc2c(c1)oc1ccccc12` ?
> 100 µM (inactive)

----------
Entries and their GI50 values follow.
- Tested on: NCI-H522
- run description: NCI tumour cell line growth inhibition, 48 h
Active and inactive are the calls of the source. Rule as the data show it: active = GI50 up to about 1.1 µM and inactive = higher.

CCOC(=O)/C(=N\OC)C(O)C(F)(F)F (stereo unspecified)	> 100 µM (inactive)
Cc1ccc(NC(=O)CC/C(CC(=O)C(C)(C)C)=N/NC(=O)C(N)=O)cc1C	> 100 µM (inactive)
Fc1ccc2nc3n(c2c1)C(c1c(F)cccc1F)SC3 (stereo unspecified)	28.1 µM (inactive)
OCC1O[C@H](O[C@@H]2CCCN3CC(O)C(O)[C@@H]23)C(O)C(O)C1O (stereo partly specified)	> 100 µM (inactive)

Shifting focus to the compound that follows.
Reported GI50, compound CN1C(=O)CN2C(Cl)(Cl)C2(c2ccccc2F)c2cc([N+](=O)[O-])ccc21 (stereo unspecified) : ____
> 100 µM (inactive)

----------
- Test system: SF-268
- run description: NCI tumour cell line growth inhibition, 48 h
Calls of active or inactive are those of the source. No stated cut-off is given here; in the data, active = GI50 up to about 1.1 µM and inactive = higher.
Field 'call' accepts active, inactive

Use these answered entries as a reference point.
CCOC(=O)NC(NCC(O)c1ccccc1)(C(F)(F)F)C(F)(F)F (stereo not drawn)	inactive
CC(=O)O[C@@H]1[C@H]2[C@@H](OC(=O)c3ccccc3)[C@@H](C)C[C@]2(O)[C@H](OC(C)=O)[C@@]2(C)[C@@H]3CC(C)(C)C(=O)[C@]3(OC(C)=O)C[C@@]12C	inactive
O=C1C=CC(=O)c2c1ccc1c3ccccc3n(-c3ccccn3)c21	inactive
CCN(CC)C(=O)Cc1c(C(=O)N(CC)CC)c(=O)nc2sccn12	inactive

Hi team, can someone confirm the assay call for `CC(C)(C)OC(=O)NCCc1cccc2c1oc1c(CCC(=O)O)cccc12` ?
inactive

Thanks! And `COC(=O)[C@H](Cc1ccccc1)NC(=O)N(CCC#N)CCN(C(=O)N[C@@H](Cc1ccccc1)C(=O)OC)c1ccccc1` ?
inactive

What about this compound? `CCCCOP(=O)(OCCCC)/C(C#N)=C/c1ccc(C)o1`
inactive

Same for `CN(C)c1cccc(-c2cc(O)c3cc4c(cc3n2)OCO4)c1`
active

----------
- Tested on: IGROV-1
- run description: NCI tumour cell line growth inhibition, 48 h
Active and inactive are the calls of the source. Cut-off read from the data, not from the text of the source: active = GI50 up to about 1.1 µM and inactive = higher. Starred links: 1 amine or outer side, 2 acyl side, 3 side chain; linkers in the order of their positions; H or OH if unused. Positions of bridges follow the written chain, without caps; N, C: chain ends. Non-standard residues stand in square brackets, D forms with d. Residues, ends and D or L forms follow the SMILES beside them. Chains are numbered I, II in the order given. Actinocin(1to9) = Cc1c2oc3c(C)ccc(C(=O)[*:2])c3nc-2c(C(=O)[*:1])c(N)c1=O; NMeV = CN[CH](C(=O)O)C(C)C; Sar = CNCC(=O)O
Select the matching outcome among active, inactive

CCC(C)C1NC(=O)C(NC(=O)c2c3nc4c(C(=O)NC5C(=O)NC(C(C)CC)C(=O)N6CCCC6C(=O)N(C)CC(=O)N(C)C(C(C)C)C(=O)OC5C)ccc(C)c4oc-3c(C)c(=O)c2N)C(C)OC(=O)C(C(C)C)N(C)C(=O)CN(C)C(=O)C2CCCN2C1=O (configuration not stated) (I: TIP[Sar][NMeV] / II: TIP[Sar][NMeV]; ester I:1-I:C, II:1-II:C; linker I:N-II:N via Actinocin(1to9); configuration not given here)	active
COc1cccc(C2C3=C(COC3=O)Oc3cc4c(cc32)OCO4)c1 (configuration not stated)	active
O=C(O)CNS(=O)(=O)c1ccc(NC(=O)c2ccc([N+](=O)[O-])cc2)cc1	inactive
O=C(N/N=C/C=C/c1ccccc1)c1ccccc1Nc1ccccc1C(=O)N/N=C/C=C/c1ccccc1	inactive
CCCCCCCCCCCCCCCCCCNc1ccn(C2OC(COP(=O)(O)OCC3OC(n4ccc(NC(=O)CCCCCCCCCCCCCCCCC)nc4=O)C(OC(C)=O)C3OC(C)=O)C(OC(C)=O)C2OC(C)=O)c(=O)n1 (configuration not stated)	inactive
CCOC(=O)C1(CC)CCCCC(=O)N1 (configuration not stated)	inactive
COC(=O)C1(Cc2ccc3c(c2)CCC3)Cc2ccccc2C1O (configuration not stated)	inactive
O=C(O)C1=C/C(=C(/c2ccccc2)c2cc(C(=O)O)c(O)c3ccccc23)c2ccccc2C1=O	inactive
Cc1cc(C)nc(NS(=O)(=O)c2ccc(NC(=O)c3ccc4nc5ccccc5c(Nc5ccc(S(=O)(=O)N=C(N)N)cc5)c4c3)cc2)n1	inactive
COC(=O)[C@H](Cc1ccccc1)NC(=O)N(CCC#N)CCN(C(=O)N[C@@H](Cc1ccccc1)C(=O)OC)c1ccccc1	inactive

Please examine the following record next.
For CO/N=C1\CCC2(O)C3Cc4ccc(O)c5c4C2(CCN3CC2CC2)[C@H]1O5 (some centres not stated) , which call appears in the assay record?
inactive

----------
- Tested on: SF-539
- run description: NCI tumour cell line growth inhibition, 48 h
Calls of active or inactive are those of the source. Rule as the data show it: active = GI50 up to about 1.1 µM and inactive = higher.
Respond only with the outcome that fits, drawn from active, inactive

CC(C)=CCC[C@@H](C)c1c2nc3ccccc3sc-2c(C)c(=O)c1O	inactive

Hi, do you know how `CC(=O)/C(=C\n1c(=S)[nH]c2ccc([N+](=O)[O-])cc21)C(=O)Nc1ccccc1C` came out in this test?
inactive

Then `O=C(/C=C/C1C(=O)NC(=O)NC1=O)CC(=O)C(=O)Nc1cc(Cl)c(Cl)cc1Cl` ?
inactive

What do you get for COC(=O)C1=C(O)C(C(=O)OC)[C@]2(O)[C@H](C(=O)OC)[C@H]1C[C@@H](c1ccccc1OC)[C@H]2C(=O)OC (stereo not given in full) ?
inactive

Then `CC(/C=C/c1ncccc1OCCCCCC(=O)O)=N\NC1=NCCN1` ?
inactive

Please answer likewise for O=C(CN1CCOCC1)Nc1ccc2c(c1)C1Oc3ccccc3CC1CO2 (stereo not given)
inactive

Similarly, `CSC(SC)=C(C#N)C(=O)Nc1ccc(C)cc1` ?
inactive

Next entry: `Cc1cc2c(ccc3c(C)cc(=O)oc32)o1`
inactive

Let us now turn to COc1ccc(S(=O)(=O)NC(CCC(=O)NN)C(=O)NN)cc1 (stereo not given)
inactive

----------
- Tested on: SW-620
- run description: NCI tumour cell line growth inhibition, 48 h
Active and inactive are the calls of the source. Rule as the data show it: active = GI50 up to about 1.1 µM and inactive = higher.
Returns: one label drawn from active, inactive

Record excerpt, results attached:
C[C@]12CCC3[C@@H](CC[C@@H]4c5nonc5CC[C@]34C)C1CCC2=O (some centres not stated)	inactive
CCNC1=Nc2ccccc2-n2c(nn3nc4ccccc4c23)N1CC	inactive
COc1ccc(/C=C2\CCC(CN(C)C)C2=O)cc1 (configuration not stated)	inactive
CCOP(=O)(C[S+](C)[O-])O[C@@H]1C[C@H](C)CC[C@H]1C(C)C (some centres not stated)	inactive
Clc1ccc(Nc2nc3ccccc3nc2-c2cccs2)cc1Cl	inactive

Identify the outcome logged in this assay for the molecule shown: `Cc1cnc2c(c1)C(=O)N(c1ccc(Oc3ccccc3)cc1)S2(=O)=O`
inactive

Can you handle `CNC(=O)N(CCC#N)CCCN(C(=O)NC)c1ccccc1` next?
inactive

Likewise for CCOC(=O)CC(C)C(C#N)(OP1(=O)OC(c2ccccc2)C(C)N1C)c1ccccc1 (configuration not stated) ?
inactive

# repeat for CC1=C(c2ccccc2)C(c2ccccc2)=C(c2ccccc2)C2(c3ccccc3)C(=O)C(C)CN12 (configuration not stated)
inactive
